- target: recombinant human MAO-B (Homo sapiens, UniProt P27338)
- Sequence (P27338 1-520): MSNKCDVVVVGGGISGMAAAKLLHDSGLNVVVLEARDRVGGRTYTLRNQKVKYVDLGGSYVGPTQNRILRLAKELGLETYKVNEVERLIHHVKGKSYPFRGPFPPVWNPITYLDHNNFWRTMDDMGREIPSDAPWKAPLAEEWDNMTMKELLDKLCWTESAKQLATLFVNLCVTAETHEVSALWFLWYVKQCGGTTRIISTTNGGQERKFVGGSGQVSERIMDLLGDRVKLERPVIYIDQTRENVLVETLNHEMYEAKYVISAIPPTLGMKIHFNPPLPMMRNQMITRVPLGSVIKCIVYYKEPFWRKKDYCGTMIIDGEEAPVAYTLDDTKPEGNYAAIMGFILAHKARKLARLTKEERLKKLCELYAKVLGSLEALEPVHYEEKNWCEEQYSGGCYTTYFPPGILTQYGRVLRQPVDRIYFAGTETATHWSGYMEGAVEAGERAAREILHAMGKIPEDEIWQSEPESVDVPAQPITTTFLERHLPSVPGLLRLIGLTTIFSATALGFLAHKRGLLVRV
- experiment.summary: Cell-free Fluorescent Monoamine Oxidase A&B Detection Assay, MAO-B
- Type: biochemical
- experimental.conditions: read-out: IC50 MAO-B
Where a name gives a salt, the structure may show the parent alone.
quantity.kind: IC50 (µM)
Numbers only, in µM.

[[record]]
compound = "COC(=O)[C@H](Cc1ccc(OCc2ccccc2)cc1)N(C)CC(=O)O.Cl [PS-RG0123, hydrochloride]"
quantity_kind = "IC50"
unit_text = "µM"
obs_value = 9.95


// for each compound in input: emit IC50
1. C[C@H](Cc1ccc(OCc2ccc(C(=O)O)cc2)cc1)N(C)CC(=O)O.Cl [PS-AD0065 B, hydrochloride]
2. COC(=O)c1ccc(COc2ccc(C[C@@H](C)N(C)CC(=O)O)cc2)cc1.Cl [PS-RG0246, hydrochloride]
3. COC(=O)[C@H](Cc1ccc(OCc2cccc(Cl)c2)cc1)N(C)CC(=O)O [PS-RG0122, hydrochloride]
4. CN(CC(=O)O)[C@H](CCl)Cc1ccc(OCc2ccccc2)cc1
5. CN(CCc1ccc(OCc2ccccc2)cc1)CC(=O)O.Cl [PS-RG0064, hydrochloride]
6. C[C@H](Cc1ccc(OCc2ccc(C#N)cc2)cc1)N(C)CC(=O)O.Cl [PS-AD0065, hydrochloride]
7. C[C@H](Cc1ccc(OCc2ccncc2)cc1)N(C)CC(=O)O.Cl.Cl [PS-AD0068, hydrochloride]

[10, 361, 1.43, 1.4, 7.33, 3.28, 20]

// for each compound in input: emit IC50
1. C[C@H](Cc1ccc(OCc2cc(F)cc(F)c2)cc1)N(C)CC(=O)O.Cl [PS-RG0174, hydrochloride]
2. CN(CC(=O)O)[C@H](CC#N)Cc1ccc(OCc2ccccc2)cc1.Cl
3. CN(CC(=O)O)Cc1cc(=O)oc2cc(OCc3ccccc3)ccc12.Cl [PS-RG0098, hydrochloride]
4. CN(CC(=O)O)c1ccc(CCOCc2ccccc2)cc1.Cl
5. C[C@H](Cc1ccc(OCc2cccc(C#N)c2)cc1)N(C)CC(=O)O.Cl [PS-RG0172, hydrochloride]

[0.794, 0.56, 0.799, 23.6, 19.7]

----------
Give measured pIC50 for each item. Keep answers brief.
- target: recombinant human MAO-B (Homo sapiens, UniProt P27338)
- experiment.summary: Cell-free Fluorescent Monoamine Oxidase A&B Detection Assay, MAO-B
- Format: biochemical
- experimental.conditions: read-out: IC50 MAO-B
Where a name gives a salt, the structure may show the parent alone.
Numbers only, as −log10 of the molar value.

The cases that follow already have their pIC50 on record.
[[record]]
compound = "C[C@H](Cc1ccc(OCc2ccccc2)cc1)N(C)CC(=O)O [PS-RG0031A, hydrochloride]"
target = "recombinant human MAO-B (Homo sapiens, UniProt P27338)"
quantity_kind = "pIC50"
obs_value = 6.04

[[record]]
compound = "C[C@H](Cc1ccc(OCc2ccccc2Cl)cc1)N(C)CC(=O)O [PS-RG0121, hydrochloride]"
target = "recombinant human MAO-B (Homo sapiens, UniProt P27338)"
quantity_kind = "pIC50"
obs_value = 6.18


State its pIC50 on recombinant human MAO-B (Homo sapiens, UniProt P27338): CN(CC(=O)O)[C@H](CCO)Cc1ccc(OCc2ccccc2)cc1.Cl [PS-AD0179] 5.11
